target: CBP (Homo sapiens); construct: endogenous in cells; host or cells: 22Rv1 (ATCC CRL-2505) human prostate cancer cells; assay: CBP degradation in 22Rv1 cells (5 h); assay type: cell-based; conditions: 22Rv1 cells, 5 h
Sequence (Q92793 whole entry): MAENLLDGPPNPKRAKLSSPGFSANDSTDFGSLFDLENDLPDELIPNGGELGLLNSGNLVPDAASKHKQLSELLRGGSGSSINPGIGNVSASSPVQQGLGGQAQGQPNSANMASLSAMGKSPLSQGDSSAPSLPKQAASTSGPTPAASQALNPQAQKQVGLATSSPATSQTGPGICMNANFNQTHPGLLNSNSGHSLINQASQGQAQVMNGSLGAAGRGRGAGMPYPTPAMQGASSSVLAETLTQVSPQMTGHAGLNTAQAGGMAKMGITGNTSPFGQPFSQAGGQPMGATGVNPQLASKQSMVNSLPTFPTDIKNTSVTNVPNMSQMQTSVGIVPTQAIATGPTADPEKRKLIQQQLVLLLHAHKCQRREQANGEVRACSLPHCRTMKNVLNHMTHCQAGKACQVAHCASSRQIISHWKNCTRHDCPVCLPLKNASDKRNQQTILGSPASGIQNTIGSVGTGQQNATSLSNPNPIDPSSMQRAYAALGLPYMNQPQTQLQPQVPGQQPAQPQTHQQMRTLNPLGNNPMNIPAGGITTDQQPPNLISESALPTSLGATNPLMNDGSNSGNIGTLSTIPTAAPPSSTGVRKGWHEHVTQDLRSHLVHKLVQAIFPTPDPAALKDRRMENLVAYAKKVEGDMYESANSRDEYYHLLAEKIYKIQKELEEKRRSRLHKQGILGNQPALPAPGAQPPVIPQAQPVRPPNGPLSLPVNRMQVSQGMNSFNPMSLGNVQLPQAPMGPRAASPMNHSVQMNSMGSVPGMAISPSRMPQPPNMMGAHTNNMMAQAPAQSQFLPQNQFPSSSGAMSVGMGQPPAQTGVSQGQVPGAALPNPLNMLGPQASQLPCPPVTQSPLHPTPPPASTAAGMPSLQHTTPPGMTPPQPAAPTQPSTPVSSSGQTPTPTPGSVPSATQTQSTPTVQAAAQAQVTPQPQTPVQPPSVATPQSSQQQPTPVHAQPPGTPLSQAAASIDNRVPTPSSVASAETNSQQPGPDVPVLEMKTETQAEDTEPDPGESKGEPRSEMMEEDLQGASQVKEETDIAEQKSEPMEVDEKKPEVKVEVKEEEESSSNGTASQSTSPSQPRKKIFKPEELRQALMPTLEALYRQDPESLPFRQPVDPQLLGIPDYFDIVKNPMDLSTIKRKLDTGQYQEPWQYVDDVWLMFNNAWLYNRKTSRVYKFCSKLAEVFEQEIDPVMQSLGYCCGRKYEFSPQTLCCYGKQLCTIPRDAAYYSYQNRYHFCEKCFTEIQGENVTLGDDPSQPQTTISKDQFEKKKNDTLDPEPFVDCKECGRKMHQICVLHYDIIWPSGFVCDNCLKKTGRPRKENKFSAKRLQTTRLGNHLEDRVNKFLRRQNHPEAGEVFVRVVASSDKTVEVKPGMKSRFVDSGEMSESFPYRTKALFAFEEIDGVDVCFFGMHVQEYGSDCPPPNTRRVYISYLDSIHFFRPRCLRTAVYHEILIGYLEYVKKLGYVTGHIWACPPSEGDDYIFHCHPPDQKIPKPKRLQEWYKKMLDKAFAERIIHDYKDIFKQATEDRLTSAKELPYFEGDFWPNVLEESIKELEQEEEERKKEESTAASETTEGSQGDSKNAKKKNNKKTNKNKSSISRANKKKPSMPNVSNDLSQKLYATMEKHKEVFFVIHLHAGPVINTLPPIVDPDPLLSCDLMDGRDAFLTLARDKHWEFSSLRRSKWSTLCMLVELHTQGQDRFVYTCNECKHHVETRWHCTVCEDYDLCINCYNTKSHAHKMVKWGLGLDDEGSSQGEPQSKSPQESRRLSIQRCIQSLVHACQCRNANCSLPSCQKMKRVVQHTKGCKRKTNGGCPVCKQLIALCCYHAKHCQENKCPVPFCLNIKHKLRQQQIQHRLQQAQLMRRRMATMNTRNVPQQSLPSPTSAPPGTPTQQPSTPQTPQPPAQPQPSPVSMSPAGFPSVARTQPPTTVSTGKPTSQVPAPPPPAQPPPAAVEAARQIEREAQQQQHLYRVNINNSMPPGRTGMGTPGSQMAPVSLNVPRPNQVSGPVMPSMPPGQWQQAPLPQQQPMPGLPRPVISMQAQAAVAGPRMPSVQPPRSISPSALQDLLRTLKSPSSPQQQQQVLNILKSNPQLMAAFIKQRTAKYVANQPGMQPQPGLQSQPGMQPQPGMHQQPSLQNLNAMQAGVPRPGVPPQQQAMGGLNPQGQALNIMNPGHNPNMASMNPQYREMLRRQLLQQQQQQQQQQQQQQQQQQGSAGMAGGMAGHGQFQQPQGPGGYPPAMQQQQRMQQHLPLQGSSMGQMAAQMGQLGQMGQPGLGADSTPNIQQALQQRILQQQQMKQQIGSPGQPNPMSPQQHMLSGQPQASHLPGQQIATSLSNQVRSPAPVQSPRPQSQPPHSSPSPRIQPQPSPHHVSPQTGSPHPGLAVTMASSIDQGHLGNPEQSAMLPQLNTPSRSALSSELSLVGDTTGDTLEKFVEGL
METRIC: DC50

Example results:
DC50 recorded for this molecule, Cn1cc(-c2cc3c(cc2C(F)F)N(c2nn(C4CCN(C(=O)CN5Cc6cc7c(cc6C5)C(=O)N(C5CCC(=O)NC5=O)C7=O)CC4)c4c2CNCC4)CCC3)cn1 (stereo not shown) , is > 1 µM

DC50 recorded for this molecule, CC(=O)N1CCc2c(c(N3CCCc4cc(-c5cnn(CCCCCN6Cc7cc8c(cc7C6)C(=O)N(C6CCC(=O)NC6=O)C8=O)c5)c(C(F)F)cc43)nn2C2CCOCC2)C1 (stereo not shown) , is < 0.01 µM

Just so you know, measured DC50 for CC(=O)N1CCc2c(c(N3CCCc4cc(-c5cnn(C)c5)c(C(F)F)cc43)nn2C[C@H]2CC[C@H](C(=O)N3CCc4cc5c(cc4C3)C(=O)N(C3CCC(=O)NC3=O)C5=O)CC2)C1 (stereo partly shown) came out at > 1 µM

Next, consider the following molecule.
DC50 in this record for CC(=O)N1Cc2c(N3CCCc4cc(-c5ccnn5C)c(C(F)F)cc43)nn(C3CCN(C(=O)CN4Cc5cc6c(cc5C4)C(=O)N(C4CCC(=O)NC4=O)C6=O)CC3)c2C(C)(C)C1 (stereo not shown) : < 0.01 µM

###

target: P300 (Homo sapiens, UniProt Q09472); construct: endogenous in cells; host or cells: 22Rv1 (ATCC CRL-2505) human prostate cancer cells; assay: P300 degradation in 22Rv1 cells (5 h); type: cell-based; conditions: 22Rv1 cells, 5 h
Sequence (Q09472 whole entry): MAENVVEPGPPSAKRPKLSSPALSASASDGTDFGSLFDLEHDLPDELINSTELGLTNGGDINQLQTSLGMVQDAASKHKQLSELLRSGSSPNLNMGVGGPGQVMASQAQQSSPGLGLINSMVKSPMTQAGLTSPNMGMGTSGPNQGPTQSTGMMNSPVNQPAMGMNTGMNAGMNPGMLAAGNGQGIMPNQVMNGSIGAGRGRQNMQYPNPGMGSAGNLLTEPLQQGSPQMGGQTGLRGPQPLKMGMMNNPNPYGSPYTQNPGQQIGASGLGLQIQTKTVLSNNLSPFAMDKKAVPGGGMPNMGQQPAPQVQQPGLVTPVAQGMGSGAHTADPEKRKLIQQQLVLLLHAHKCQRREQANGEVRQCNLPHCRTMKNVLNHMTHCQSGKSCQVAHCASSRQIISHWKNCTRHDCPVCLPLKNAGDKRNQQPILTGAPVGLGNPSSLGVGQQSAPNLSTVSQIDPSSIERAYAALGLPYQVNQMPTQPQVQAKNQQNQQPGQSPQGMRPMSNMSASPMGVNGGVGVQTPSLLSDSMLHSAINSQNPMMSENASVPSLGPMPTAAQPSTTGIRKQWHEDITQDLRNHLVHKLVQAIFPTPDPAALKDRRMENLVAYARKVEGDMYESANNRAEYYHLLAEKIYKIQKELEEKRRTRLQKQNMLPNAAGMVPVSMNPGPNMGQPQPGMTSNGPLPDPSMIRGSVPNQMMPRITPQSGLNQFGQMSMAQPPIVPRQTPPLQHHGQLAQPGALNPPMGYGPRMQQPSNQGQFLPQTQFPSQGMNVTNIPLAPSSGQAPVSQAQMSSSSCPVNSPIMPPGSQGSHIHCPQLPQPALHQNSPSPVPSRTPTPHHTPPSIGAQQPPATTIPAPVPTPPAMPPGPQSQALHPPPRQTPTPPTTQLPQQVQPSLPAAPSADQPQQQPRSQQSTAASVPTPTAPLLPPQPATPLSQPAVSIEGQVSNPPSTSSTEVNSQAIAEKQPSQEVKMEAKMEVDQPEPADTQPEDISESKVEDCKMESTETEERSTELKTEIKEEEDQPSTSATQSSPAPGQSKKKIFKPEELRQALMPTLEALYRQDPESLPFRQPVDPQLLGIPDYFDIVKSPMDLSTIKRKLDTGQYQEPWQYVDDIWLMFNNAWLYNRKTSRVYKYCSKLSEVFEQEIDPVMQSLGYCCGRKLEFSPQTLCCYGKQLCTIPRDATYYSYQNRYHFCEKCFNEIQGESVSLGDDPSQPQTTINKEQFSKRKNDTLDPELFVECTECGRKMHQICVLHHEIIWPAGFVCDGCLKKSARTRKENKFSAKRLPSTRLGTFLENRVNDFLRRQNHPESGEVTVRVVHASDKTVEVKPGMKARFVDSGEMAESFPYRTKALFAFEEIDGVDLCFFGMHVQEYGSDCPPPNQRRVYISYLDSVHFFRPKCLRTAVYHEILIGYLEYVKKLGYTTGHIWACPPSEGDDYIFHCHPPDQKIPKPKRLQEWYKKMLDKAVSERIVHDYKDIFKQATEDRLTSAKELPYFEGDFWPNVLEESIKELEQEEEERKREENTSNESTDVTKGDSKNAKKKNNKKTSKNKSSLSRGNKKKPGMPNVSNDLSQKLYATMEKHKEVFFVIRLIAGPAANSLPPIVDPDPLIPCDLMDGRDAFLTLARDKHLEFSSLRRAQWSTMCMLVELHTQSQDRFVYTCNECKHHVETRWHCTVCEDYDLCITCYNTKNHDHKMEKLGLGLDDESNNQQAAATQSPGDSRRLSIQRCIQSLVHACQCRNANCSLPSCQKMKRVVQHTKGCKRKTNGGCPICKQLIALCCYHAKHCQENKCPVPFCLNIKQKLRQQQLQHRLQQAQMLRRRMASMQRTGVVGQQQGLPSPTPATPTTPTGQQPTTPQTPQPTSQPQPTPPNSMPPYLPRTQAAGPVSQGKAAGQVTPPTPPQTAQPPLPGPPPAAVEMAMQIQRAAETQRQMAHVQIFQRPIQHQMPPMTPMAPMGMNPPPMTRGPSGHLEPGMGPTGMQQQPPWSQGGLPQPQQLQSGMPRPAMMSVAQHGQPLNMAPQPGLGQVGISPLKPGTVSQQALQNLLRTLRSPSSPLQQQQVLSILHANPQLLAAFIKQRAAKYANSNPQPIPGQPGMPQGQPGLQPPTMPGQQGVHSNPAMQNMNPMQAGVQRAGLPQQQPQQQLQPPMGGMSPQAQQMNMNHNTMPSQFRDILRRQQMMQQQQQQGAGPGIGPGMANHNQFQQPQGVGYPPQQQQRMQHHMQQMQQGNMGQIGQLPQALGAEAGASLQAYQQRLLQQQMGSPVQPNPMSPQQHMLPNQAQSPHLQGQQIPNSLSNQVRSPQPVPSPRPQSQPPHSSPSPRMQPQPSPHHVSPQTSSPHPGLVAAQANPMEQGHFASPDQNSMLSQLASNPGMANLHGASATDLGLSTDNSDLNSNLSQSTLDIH
# DC50 per entry

// known answers, use as guide
// DC50 value for CC(=O)N1CCc2c(ccc3c2CCCN3c2nn(C3CCN(C(=O)CN4Cc5cc6c(cc5C4)C(=O)N(C4CCC(=O)NC4=O)C6=O)CC3)c3c2CN(C(C)=O)CC3)C1 (stereo not drawn) [CP-081] : > 1000 nM

Entry CC(=O)N1CCc2c(c(N3CCCc4cc(C)c(C(F)F)cc43)nn2C2CCN(C(=O)CN3Cc4cc5c(cc4C3)C(=O)N(C3CCC(=O)NC3=O)C5=O)CC2)C1 (stereo not drawn) [CP-011] — recorded DC50 = < 10 nM

Per the records, this compound ( CC(=O)N1CCc2c(c(N3CCCc4cc5c(cc43)C(C)CCC5)nn2C2CCN(C(=O)CN3Cc4cc5c(cc4C3)C(=O)N(C3CCC(=O)NC3=O)C5=O)CC2)C1 (stereo not drawn) [CP-079] ) has DC50 equal to < 100 nM

Lookup result for CC(=O)N1CCc2c(c(N3CCCc4cc(Cl)c(C(F)F)cc43)nn2C2CCN(C(=O)CN3Cc4cc5c(cc4C3)C(=O)N(C3CCC(=O)NC3=O)C5=O)CC2)C1 (stereo not drawn) [CP-017] ; measured DC50: > 1000 nM

Kindly note the recorded DC50 for CC(=O)N1CCc2c(c(N3CCCc4cc(-c5cnn(C)c5)c(C(F)F)cc43)nn2[C@H]2CC[C@H](CN3CCc4cc5c(cc4C3)C(=O)N(C3CCC(=O)NC3=O)C5=O)CC2)C1 (stereo partly drawn) [CP-049] , which is < 10 nM

---
Field DC50 (entry CC(=O)N1CCc2c(c(N3CCCc4cc(C5CCCCC5)c(C(F)F)cc43)nn2C2CCN(C(=O)CN3Cc4cc5c(cc4C3)C(=O)N(C3CCC(=O)NC3=O)C5=O)CC2)C1 (stereo not drawn) [CP-021] ) reads < 10 nM

Memo: CC(=O)N1CCc2c(c(N3CCCc4cc(-c5cnn(C)c5)c(C(F)F)cc43)nn2C2CCC(N3CC4(Cc5cc6c(cc5C4)C(=O)N(C4CCC(=O)NC4=O)C6=O)C3)CC2)C1 (stereo not drawn) [CP-086] , reported DC50: < 10 nM

Value of DC50 reported for the compound CC(=O)N1CCc2c(c(N3CCCc4cc(-c5cnn(C)c5)c(C(F)F)cc43)nn2C[C@H]2CC[C@H](N3CCc4cc5c(cc4C3)C(=O)N(C3CCC(=O)NC3=O)C5=O)CC2)C1 (stereo partly drawn) [CP-041] is < 10 nM

Kindly note the recorded DC50 for Cc1noc(C)c1-c1ccc2c(c1)nc([C@@H]1CCCC(=O)N1c1ccc(F)c(F)c1)n2C1CCN(C(=O)CN2CCc3cc4c(cc3CC2)C(=O)N(C2CCC(=O)NC2=O)C4=O)CC1 (stereo partly drawn) [CP-064] , which is > 1000 nM
